measurement.target: RecQ-WH (Escherichia coli)
Construct: coding for residues 408– 523 of E. coli RecQ; made in house; host or cells: E. coli BL21(DE3)
Sequence (P15043 408-523): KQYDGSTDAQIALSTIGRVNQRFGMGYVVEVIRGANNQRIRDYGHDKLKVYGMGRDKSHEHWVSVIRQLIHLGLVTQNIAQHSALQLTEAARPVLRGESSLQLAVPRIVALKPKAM
procedure.summary: Pull-down assay with immobilized protein and LSM libraries
Set-up: species or system E. coli
condition.notes: H12 library; 1:1 binding assumed; read-out: Surface mapping KD (apparent)
metric: Kd (µM)
# unit: µM | format: bare number

Prompt: Report Kd for NCCCC[C@@H](CC(=O)N[C@H]1CCC[C@@H]1C(=O)N[C@H]1CCC[C@@H]1C(N)=O)NC(=O)[C@H]1CCC[C@@H]1NC(=O)[C@H]1CCC[C@@H]1NC(=O)C[C@H](Cc1ccccc1)NC(=O)[C@H]1CCC[C@@H]1NC(=O)[C@H]1CCC[C@@H]1N [H12 FK] please.
Response: 337

Prompt: Report Kd for CC(C)C[C@@H](CC(=O)N[C@H]1CCC[C@@H]1C(=O)N[C@H]1CCC[C@@H]1C(=O)N[C@@H](CCCCN)CC(=O)N[C@H]1CCC[C@@H]1C(=O)N[C@H]1CCC[C@@H]1C(N)=O)NC(=O)[C@H]1CCC[C@@H]1NC(=O)[C@H]1CCC[C@@H]1N [H12 LK] please.
Response: 434

Prompt: Report Kd for NCCCC[C@@H](CC(=O)N[C@H]1CCC[C@@H]1C(=O)N[C@H]1CCC[C@@H]1C(N)=O)NC(=O)[C@H]1CCC[C@@H]1NC(=O)[C@H]1CCC[C@@H]1NC(=O)C[C@H](Cc1c[nH]c2ccccc12)NC(=O)[C@H]1CCC[C@@H]1NC(=O)[C@H]1CCC[C@@H]1N [H12 WK] please.
Response: 431

Prompt: Report Kd for NC(=O)[C@H]1CCC[C@@H]1NC(=O)[C@H]1CCC[C@@H]1NC(=O)C[C@H](CO)NC(=O)[C@H]1CCC[C@@H]1NC(=O)[C@H]1CCC[C@@H]1NC(=O)C[C@H](Cc1c[nH]c2ccccc12)NC(=O)[C@H]1CCC[C@@H]1NC(=O)[C@H]1CCC[C@@H]1N [H12 WS] please.
Response: 420
